# Tested on: Plasmodium falciparum
# PROTOCOL DETAILS: GSK_TCMDC: Inhibition of Plasmodium falciparum 3D7 in whole red blood cells, using parasite LDH activity as an index of growth. Test compounds present at 2uM
# Assay type: functional
OUTCOME MEASURE: Inhibition (%)
Number only, in %; omit the unit.

For orientation, consider the following solved cases.
| SMILES REPR | SYSTEM | OUTCOME MEASURE | OBSERVED VALUE |
| --- | --- | --- | --- |
| CC[C@H](N/C(=N\c1ccc(-c2ccccc2)cc1)Nc1ccc(C#N)cc1O)c1ccccc1 | Plasmodium falciparum | Inhibition | 99 |
| COC(=O)C(=C(C)C)N1C(=O)[C@@H](NC(=O)OCc2ccccc2)[C@H]1SS[C@@H]1[C@H](NC(=O)OCc2ccccc2)C(=O)N1C(C(=O)OC)=C(C)C | Plasmodium falciparum | Inhibition | 97 |

Reported Inhibition of `NC1=NC(c2ccccc2)(c2ccccc2)C(=O)N1CCCCc1ccccc1.O=CO` : 96

Reported Inhibition of `Cc1cc(NC(=O)Nc2ccc(C(C)(C)C)cc2)c2ccccc2n1` : 100
